tested on: ACHN renal; test: NCI-60 one-dose screen, 48 h; conditions: 10 µM unless noted
This is part of a sample that, as a whole, favours compounds with a hit. Of some 83,000 tested, about 20% had one in any assay. Activity calls are given as the source filed them. How the source made its calls: active means growth percent below 10; inactive means the rest.
Please state which outcome applies, choosing from Yes = active, No = inactive

Query: For CCS(=O)(=O)c1ncnc2nc[nH]c12 , what call appears in the results of this test?
Result: No

Query: For Cc1nc2ccccc2n1-c1ncnc2c1CC(C)c1ccccc1N2C (centres undefined) , what call appears in the results of this test?
Result: No

Query: For Cc1nn(-c2ccccc2)c(-n2ccnc2)c1/C=N/Nc1nc(-c2ccc(F)cc2)cs1 , what call appears in the results of this test?
Result: No

Query: For CCc1cccc2c1S/C(=C/c1ccc(Cl)cc1)C2=O , what call appears in the results of this test?
Result: No

Query: For COc1ccc(CNC(=O)C(=O)[C@H](Cc2ccccc2)NC(=O)c2[nH]c3ccccc3c(=O)c2C)cc1 , what call appears in the results of this test?
Result: No

Query: For O=c1c2cc(F)ccc2sc2c(NCCN3CCOCC3)nc3ccccc3c12 , what call appears in the results of this test?
Result: No

Query: For C/C=C(\C)C(=O)N[C@H]1[C@@H](OC(C)=O)C[C@]2(C)C3CC[C@@]4(C)C(CC[C@@H]4C(C)N(C)C)C3CCC2[C@H]1O (some centres undefined) , what call appears in the results of this test?
Result: No

Query: For CCCC1CCC(O)(C(C)(O)C(=O)NC2C(=O)N3NCCCC3C(=O)N(O)C(C)C(=O)N3NCCCC3C(=O)N3NCC(O)CC3C(=O)NC(C)C(=O)OC2C(C)C)OC1CC (centres undefined) , what call appears in the results of this test?
Result: Yes

Query: For COc1cccc(-c2nc(-c3ccc(NC(=O)C(C)C)cc3)[nH]c2-c2ccnc(Br)c2)c1 , what call appears in the results of this test?
Result: No

###

test system: MCF7 breast; assay: NCI-60 one-dose screen, 48 h (100 = growth as untreated, 0 = no growth, -100 = all killed); details: 10 µM unless noted
This is part of a sample that, as a whole, favours compounds with a hit. Of some 83,000 tested, about 20% had one in any assay.
parameter measured: growth (%)
Provide the reading as a plain figure in %.

Query: Report growth for COc1cccc(Cc2nn3cc(-c4ccccc4)nc3s2)c1 tested on MCF7 breast.
Result: 27.5

Query: Report growth for O=C(CCCCCCSc1nc(-c2ccccc2)cc(-c2ccccc2)n1)NO tested on MCF7 breast.
Result: 16.1

Query: Report growth for O=C(O)c1cn(C2CC2)c2cc(N3CCN(C(=O)Nc4nc(-c5ccc(Cl)cc5)cs4)CC3)c(F)cc2c1=O tested on MCF7 breast.
Result: 2.95

Query: Report growth for CCCCn1c(=O)c(-c2cc(-c3ccc(Cl)cc3)nc(-c3ccc(Cl)cc3)c2)cc2ccc(Cl)cc21 tested on MCF7 breast.
Result: 93.1

Query: Report growth for CCOC(=O)c1nc(Nc2ccc(C(C)=O)cc2)sc1C tested on MCF7 breast.
Result: 92.9

###

test system: A549/ATCC NSCLC; assay: NCI-60 one-dose screen, 48 h; settings: 10 µM unless noted
Compounds without any hit were thinned out: in the full panel of roughly 83,000, 20% have a hit. Activity calls are given as the source filed them. Rule for the calls: active = growth percent below 10; inactive = the rest.
Please state which outcome applies, choosing from active, inactive

Query: For Cc1nn(-c2ccccc2)c(-n2ccnc2)c1/C=N/Nc1nc(-c2ccc(Cl)c(Cl)c2)cs1 , what call appears in the results of this test?
Result: active

Query: For O=c1ccc(N=Nc2ccccc2)ccc1Cl , what call appears in the results of this test?
Result: inactive

Query: For COC(=O)[C@H](C)NC(=O)NC(=O)NC(=O)CI , what call appears in the results of this test?
Result: inactive

Query: For CCC(C)(c1cc(C(C)(C)C)c(O)c(C(C)(C)C)c1)c1cc(C(C)(C)C)c(O)c(C(C)(C)C)c1 , what call appears in the results of this test?
Result: inactive

Query: For CCc1cccc2c3c(sc12)C(c1ccc(Cl)cc1)C(C#N)=C(N)O3 (stereo not given) , what call appears in the results of this test?
Result: inactive

Query: For COc1ccc(C2NC(=O)C(C#N)c3c2sc2c(F)cccc32)c(OC)c1 (stereo not given) , what call appears in the results of this test?
Result: inactive

Query: For CCCCCCNC(=O)Oc1ccc(/C(=C(\C)c2ccc(Cl)cc2)c2ccc(OCCCN(C)C)cc2)cc1 , what call appears in the results of this test?
Result: inactive

Query: For CC1(C)C2CC1C1(/C=N\Nc3ccccc3)C(C2)C(C#N)(C#N)C1(C#N)C#N (stereo not given) , what call appears in the results of this test?
Result: inactive

Query: For Nc1nc2ccccc2c2c(=O)c3cc(F)ccc3sc12 , what call appears in the results of this test?
Result: inactive

Query: For COc1ccc(/C=C/c2c(C(=O)/C=C/c3ccc(C(F)(F)F)cc3)c(C)nc3ccccc23)cc1 , what call appears in the results of this test?
Result: inactive

###

test system: HS 578T breast; assay: NCI-60 one-dose screen, 48 h (100 = growth as untreated, 0 = no growth, -100 = all killed); conditions: 10 µM unless noted
The panel holds about 83,000 compounds, 20% with a hit somewhere; the sample as a whole holds those more often.
For each record, write down the corresponding growth.
Provide the reading as a plain figure in %.

Query: Report growth for COc1ccc(CNC(=O)C(=O)[C@H](Cc2ccccc2)NC(=O)c2[nH]c3ccccc3c(=O)c2C)cc1 tested on HS 578T breast.
Result: 98.8

Query: Report growth for CN(C)CCNc1nc2ccccc2c2c(=O)c3cc(F)ccc3sc12 tested on HS 578T breast.
Result: 47.8

Query: Report growth for CC(=O)OC[C@H]1OC(Sc2sc(C(=O)c3ccc(C)cc3)c(N)c2-c2nc3ccccc3s2)[C@H](OC(C)=O)[C@@H](OC(C)=O)[C@@H]1OC(C)=O (stereo partly drawn) tested on HS 578T breast.
Result: 52.5

Query: Report growth for NC[C@@H]1O[C@H](O[C@@H]2[C@@H](CO)OC(O[C@@H]3[C@@H](O)[C@H](N)C[C@H](N)[C@H]3OC3O[C@H](CN)[C@@H](O)[C@H](O)[C@H]3N)[C@@H]2O)[C@H](N)[C@@H](O)[C@@H]1O (stereo partly drawn) tested on HS 578T breast.
Result: 111

Query: Report growth for CNCCCNc1nc2ccccc2c2c(=O)c3cc(OC)ccc3sc12 tested on HS 578T breast.
Result: 75

Query: Report growth for O=C(CSc1nc2ccccc2[nH]1)Nc1cccc(Cl)c1 tested on HS 578T breast.
Result: 91.9

Query: Report growth for COc1ccc(C(Cc2ccccc2)NCCN2CCOCC2)cc1 (stereo not drawn) tested on HS 578T breast.
Result: 107

Query: Report growth for O=C(CCN1C(=O)/C(=C/c2ccc(O)cc2)SC1=S)Nc1ccccc1 tested on HS 578T breast.
Result: 93.3

Query: Report growth for Cc1cc2nc3cc(C)c(N)cc3[n+](-c3ccccc3)c2cc1N tested on HS 578T breast.
Result: 59.2

Query: Report growth for COc1ccc2nc(NC(=O)c3cccnc3Nc3ccc(S(N)(=O)=O)cc3)sc2c1 tested on HS 578T breast.
Result: 96.7

Query: Report growth for CCc1cccc2c3c(sc12)C(c1ccc(F)cc1)C(C#N)=C(N)O3 (stereo not drawn) tested on HS 578T breast.
Result: 26.7

Query: Report growth for Cc1onc2c(-c3ccccc3)n[nH]c(=O)c12 tested on HS 578T breast.
Result: 127

Query: Report growth for CCOC(=O)C1=C(N)Oc2c(sc3c(C)cccc23)C1c1ccc(Cl)cc1 (stereo not drawn) tested on HS 578T breast.
Result: 18.9

Query: Report growth for COc1ccc(C(=O)/C=C/c2sc(Cl)nc2Cl)cc1 tested on HS 578T breast.
Result: 58.5

Query: Report growth for Cc1ccc(-c2nc(N3CCN(CC(=O)Nc4ccc(Cl)c(C(F)(F)F)c4)CC3)c3ccccc3n2)cc1 tested on HS 578T breast.
Result: 97.2

Query: Report growth for C=C1C(=O)O[C@H]2[C@H]1CC/C(COC(=O)CCSSCCC(=O)OC/C1=C/CC[C@@]3(C)O[C@H]3[C@H]3OC(=O)C(=C)[C@@H]3CC1)=C\CC[C@@]1(C)O[C@@H]21 tested on HS 578T breast.
Result: 7.57

Query: Report growth for O=C(CCc1nnc(-c2c(Cl)cccc2Cl)o1)c1nc2ccccc2[nH]1 tested on HS 578T breast.
Result: 82.3

Query: Report growth for CCN(CC)S(=O)(=O)c1ccc(NC(=O)CSc2nnc(C)n2-c2ccccc2)cc1 tested on HS 578T breast.
Result: 95.5
